Parameter yeast fitness: see the listing below.
B1: tRNA (parent)
chain: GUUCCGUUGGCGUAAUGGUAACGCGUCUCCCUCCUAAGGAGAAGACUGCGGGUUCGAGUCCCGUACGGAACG

- Variants of: B1
- TEST_DESCRIPTION: yeast fitness relative to wild type (ratio to wild type); higher = fitter; tRNA-Arg(CCU), competitive growth, 37 C, YPD
This sample holds only a part of the variants without activity.

{"columns": ["VARIANT_KEY", "QUALIFIER", "yeast fitness"],
 "data": [
  ["C27U A37C G51C G67U", "=", 0.543],
  ["C11A C62A C66U", "=", 0.629],
  ["C5U A14U U32A U54C C55U", "≤", 0.5],
  ["U7G C34G A43U", "=", 0.661],
  ["U16A C24U C34A A65G", "=", 0.716],
  ["A21C C29U C31G A43U A65U", "=", 0.593],
  ["U2C G52C", "=", 0.661],
  ["G6C U8C G23C C30A A42C G48C G52C", "≤", 0.5],
  ["G25C C31U A65U", "=", 0.726],
  ["C29G G51A A69U", "≤", 0.5],
  ["G50C G52A", "=", 0.607]
]}

The origin of these recorded values is the RNAGym collection of RNA variant scans (doi:10.1126/science.aae0568).
